Every entry's value here was drawn from PubChem BioAssay AID463173.

Tested on: DeltatarO mutant
ASSAY REMARKS: S. aureus survival, RN4220 and DeltatarO strains – OD600, teichoic acid synthesis inhibitors, primary screen (AID 463173)
STATED CONDITIONS: S. aureus RN4220 wild type/DeltatarO growth, OD600, 18 h, screened at 18.75 µg/mL (by protocol)
The campaign covered roughly 52,000 compounds. About 4,300 (8.3%) were called active. No stated cut-off is given here; in the data, active means survival mostly below about 52% (no sharp cut-off); inactive means mostly above about 56%. The sample as a whole holds a higher share of actives than the screen did.
Tick one outcome: T (active), F (inactive)

Example entries begin here.
CN(Cc1ccc(F)cc1)S(=O)(=O)c1nnc(NC(=O)c2ccc(F)cc2)s1 :: F
CCCCSc1ncnc2c1c(-c1ccccc1)cn2-c1cccc(F)c1 :: F
CCN1c2ccccc2-c2nc(SCC(=O)NCc3ccccc3)ncc2S1(=O)=O :: F
Cc1ccccc1CN1c2ccccc2-c2nc(SCC(=O)c3ccccc3)ncc2S1(=O)=O :: F
CN(Cc1ccccc1)S(=O)(=O)c1nnc(NC(=O)c2ccccc2)s1 :: T

Q: Please state the recorded outcome for this molecule: "CCCC(=O)Nc1nc2ccc(S(C)(=O)=O)cc2s1"
A: F

Q: Would you mind telling me which call this test gave COc1cc(C(=O)NCC(c2cccs2)S(=O)(=O)c2ccc(F)cc2)cc(OC)c1OC (stereo not drawn) ?
A: F

Q: Can you look up the reported call for "Cc1ccc(CN2c3ccccc3-c3nc(SCC(=O)NCc4ccccc4)ncc3S2(=O)=O)cc1" for me?
A: T

###

Tested on: DeltatarO mutant
ASSAY REMARKS: S. aureus survival, RN4220 and DeltatarO strains – OD600, teichoic acid synthesis inhibitors, primary screen (AID 463173)
STATED CONDITIONS: S. aureus RN4220 wild type/DeltatarO growth, OD600, 18 h, stronger effect = lower value, screened at 18.75 µg/mL (by protocol)
Out of some 52,000 compounds screened, about 4,300 (8.3%) were called active. This is one part of a sample in which actives are shown more often than they occur.
READOUT KIND: survival (%)
Give bare numbers, in %.

CCOC(=O)c1cc(S(=O)(=O)Nc2cc(OC)ccc2OC)[nH]n1 :: 119
COc1cccc(-c2nnc(SCC(=O)N3CCCCC3)o2)c1 :: 98

// switching to the query molecule
Q: Which survival value belongs to "COc1cccc(NC(=O)CN2CCCN(S(=O)(=O)c3ccc(Br)cc3)CC2)c1" ?
A: 58

###

Test system: DeltatarO mutant
ASSAY REMARKS: S. aureus survival, RN4220 and DeltatarO strains – OD600, teichoic acid synthesis inhibitors, primary screen (AID 463173)
STATED CONDITIONS: S. aureus RN4220 wild type/DeltatarO growth, OD600, 18 h, stronger effect = lower value, screened at 18.75 µg/mL (by protocol)
Among all 52,000 compounds or so, about 4,300 (8.3%) were called active. Only a selection was taken, and actives are over-represented in it overall.
READOUT KIND: survival (%)
Answers are plain numbers, in %.

Some compounds with recorded survival:
Cc1cc(C)cc(-n2ccn(Cc3ccc(F)cc3)c(=O)c2=O)c1 :: 71
O=C(c1ccccc1)N1CCC(O)(c2cccnc2)CC1 :: 70
CC1CCCCN1C(=O)c1cc(-c2ccc(Br)cc2)on1 (stereo not given) :: 66
COc1ccc(NC(=O)CSc2nnc(NC(=O)Nc3ccccc3)s2)c(OC)c1 :: 47
COc1ccc(-c2cc(C(=O)Nc3ccc4c(c3)OCO4)no2)cc1OC :: 65

Hello, I would appreciate it if you could give survival for each entry below.
1. CCOc1cc(CNC(=O)CN2CCSc3ccccc32)cc(OCC)c1OCC
2. Cc1ccc(Cn2c(C(=O)Nc3ccc(Cl)cc3)cc3sccc32)cc1
3. Cc1ccc(CCNC(=O)CCCc2nnc3n(C)c(=O)c4sccc4n23)cc1
4. CCOc1ccc(-c2csc(-c3nc(-c4ccc(Br)s4)cs3)n2)cc1
5. COc1ccc(NC(=O)CSc2nc3ccncc3[nH]2)c(OC)c1

A:
85
112
86
83
95

Consider the following items and state reported survival for each.
1. O=C(CSc1nc(-c2ccco2)cc(C(F)(F)F)n1)N1CCCC1
2. Cc1ccc(NC(=O)C2CCCN(c3ncnc4onc(-c5ccc(F)cc5)c34)C2)c(Cl)c1 (stereo not given)

A:
79
71

For each of the compounds below, note its survival.
1. COc1ccc(-c2cc(C(=O)N3CCCCC3C)no2)cc1OC (stereo not given)
2. CCOC(=O)c1c(C)[nH]c(C)c1S(=O)(=O)N(C)CC(=O)Nc1ccc(C)cc1Br
3. CCN(c1ccccc1)c1ncnc2c1cnn2-c1ccc(OC)cc1
4. CCCCN(c1ccccc1)c1ncnc2c1cnn2-c1ccc(Cl)cc1
5. Cc1ccc(Cn2c(=O)n(Cc3ccccc3Cl)c(=O)c3ccccc32)cc1
6. CC(C)NC(=O)Cc1ccc(Br)cc1
7. Cc1ccc(-n2ncc3c(N(CCO)Cc4ccccc4)ncnc32)cc1
8. c1ccc(-c2noc(-c3cccnc3NCc3ccco3)n2)cc1

A:
[58, 72, 52, 87, 48, 80, 8, 60]

For each of the compounds below, note its survival.
1. Cc1ccc(Cn2c(=O)n(CCCCC(=O)NCc3ccccc3Cl)c(=O)c3ccccc32)cc1
2. COc1ccc(-c2noc(-c3cccnc3NCc3ccco3)n2)cc1
3. CCCCN(CCCC)c1ncnc2c1cnn2-c1cccc(C)c1

A:
[102, 98, 74]

Report survival for each item below.
1. CC1CCN(S(=O)(=O)c2ccc3c(c2)N(CC(=O)N2CCN(c4ccc(Cl)cc4)CC2)C(=O)CO3)CC1
2. COc1ccc(CCNc2ncnc3c2cnn3-c2ccc(C)cc2)cc1
3. OCCN(CCO)c1ncnc2c1cnn2-c1ccc(F)cc1
4. Cc1ccc(CNC(=O)CCCCn2c(=O)c3ccccc3n(Cc3ccc(Cl)cc3)c2=O)cc1

A:
1: 62; 2: 81; 3: 6; 4: 105

Give survival for each of the items listed below.
1. CCOc1ccc(CCNS(=O)(=O)c2c(C)nc3sc(C)cn3c2=O)cc1OCC
2. CCOC(=O)c1noc2ncn(CC(=O)Nc3ccccc3OC)c(=O)c12
3. CC(=O)N1CCN(C2=NC(=O)C(=C3CCCCC3)S2)CC1
4. COc1cc(NS(=O)(=O)c2ccc(NC(=O)c3ccc(C(C)=O)cc3)cc2)nc(OC)n1
5. CCCCc1nn2c(=O)cc(COC(=O)c3ccc(NC(=O)C4CCCCC4)cc3)nc2s1
6. Cc1ccc(-n2ncc3c(N(C)Cc4ccccc4)ncnc32)cc1

A:
[58, 118, 75, 87, 91, 89]

Your task in this section: give survival for each listed record.
1. CCN(c1ccccc1)c1ncnc2c1cnn2-c1ccc(C)cc1C
2. Cc1ccc(N2CCN(C(=O)c3c(C)oc4ncnc(N5CCCCC5)c34)CC2)c(C)c1

A:
1. 55
2. 77

###

System: DeltatarO mutant
ASSAY REMARKS: S. aureus survival, RN4220 and DeltatarO strains – OD600, teichoic acid synthesis inhibitors, primary screen (AID 463173)
STATED CONDITIONS: S. aureus RN4220 wild type/DeltatarO growth, OD600, 18 h, stronger effect = lower value, screened at 18.75 µg/mL (by protocol)
Screen size: about 52,000 compounds; about 4,300 (8.3%) were called active. This excerpt belongs to a sample that is enriched for actives.
READOUT KIND: survival (%)
Answers are plain numbers, in %.

O=C(Nc1ccccc1F)NC1CCN(Cc2nnnn2Cc2ccc(F)cc2)CC1 :: 96
Cc1ccc(Cl)cc1N1CCN(C(=O)c2ccc(CS(=O)(=O)c3ccccc3C)o2)CC1 :: 50
CCOC(=O)c1cc(S(=O)(=O)N2CCN(c3ccccc3F)CC2)[nH]n1 :: -5
Cc1nc(N)sc1C(C)(C)C :: 86
Cc1ccccc1-n1c(=O)c2c3c(sc2n2cnnc12)CCCC3 :: 72
Cc1ccc(C)c(CN2C(=O)c3ccccc3Sc3ccc(C(=O)NCc4ccco4)cc32)c1 :: 17

Record survival for all entries; do not skip any.
1. Cn1c2ccccc2c2c(C(=O)N3CCN(c4ccc(F)cc4)CC3)cn(C3CCCCC3)c(=O)c21
2. Cc1ccccc1CN1C(=O)c2ccccc2Sc2ccc(C(=O)NCCc3ccccc3)cc21
3. Cc1sc2c(c1C)c(=O)n(-c1ccc(Cl)cc1)c(=O)n2Cc1cc(=O)n2cc(Br)ccc2n1
4. CCOC(=O)c1cnc2cc(C(F)(F)F)ccc2c1N1CCN(c2cccc(Cl)c2)CC1
5. Cc1ccccc1S(=O)Cc1ccc(C(=O)N2CCN(c3cccc(C)c3C)CC2)o1 (centres undefined)
6. CC(=O)N1CCCc2ccc(NS(=O)(=O)c3cccc(Cl)c3)cc21

A:
1: 132; 2: 101; 3: 76; 4: 84; 5: 61; 6: 80

State the recorded survival for every item in the following list.
1. CCOC(=O)c1cnc2ccc(OCC)cc2c1N1CCN(c2cccc(Cl)c2)CC1
2. Cc1cccc(CN2C(=O)c3ccccc3Sc3ccc(C(=O)NCCCN4CCOCC4)cc32)c1

A:
1: 3; 2: 37
